System: Bacillus anthracis
Measurement protocol: microbe, parasite or virus in culture
Type: cell-based
Condition info: 18 h
Assay endpoint: MIC

Examples from the recorded data:
{"Compound": "C[C@@H]1C[C@H](N)[C@@H](O)[C@@H](O[C@@H]2[C@@H](O)[C@H](O[C@H]3O[C@H](CN)CC[C@H]3N)[C@@H](N)C[C@H]2NC(=O)[C@@H](O)CCN)O1", "MIC": "< 0.2 µg/mL"}
{"Compound": "NC[C@@H]1CC[C@@H](N)[C@@H](O[C@H]2[C@H](O)[C@@H](O[C@H]3O[C@H](CO)[C@@H](O)[C@H](N)[C@H]3O)[C@H](N)C[C@@H]2N)O1 [DKB, 3',4'-dideoxykanamycin B, reference compound]", "MIC": "< 0.2 µg/mL"}
{"Compound": "C[C@H]1O[C@H](O[C@@H]2[C@@H](O)[C@H](O[C@H]3O[C@H](CN)CC[C@H]3N)[C@@H](N)C[C@H]2N)[C@H](O)[C@@H](N)[C@@H]1O", "MIC": "0.39 µg/mL"}
{"Compound": "C[C@@H]1C[C@H](N)[C@@H](O)[C@@H](O[C@@H]2[C@@H](O)[C@H](O[C@H]3O[C@H](CN)CC[C@H]3N)[C@@H](N)C[C@H]2N)O1", "MIC": "< 0.2 µg/mL"}

Now look at this one.
I'd like to know its MIC. The compound in question is C[C@H]1O[C@H](O[C@@H]2[C@@H](O)[C@H](O[C@H]3O[C@H](CN)CC[C@H]3N)[C@@H](N)C[C@H]2NC(=O)[C@@H](O)CCN)[C@H](O)[C@@H](N)[C@@H]1O
0.2 µg/mL

* * *

System: Pseudomonas aeruginosa A3
Measurement protocol: MIC, serial dilution on nutrient agar
Format: cell-based
Condition info: A3, 18 h
Assay endpoint: MIC (µg/mL)
Kindly answer with a numeric value in µg/mL, unit omitted.

GET /values?readout=MIC&system=Pseudomonas aeruginosa A3&item= C[C@@H]1C[C@H](N)[C@@H](O)[C@@H](O[C@@H]2[C@@H](O)[C@H](O[C@H]3O[C@H](CN)CC[C@H]3N)[C@@H](N)C[C@H]2N)O1
3.13

And for C[C@@H]1C[C@H](N)[C@@H](O)[C@@H](O[C@@H]2[C@@H](O)[C@H](O[C@H]3O[C@H](CN)CC[C@H]3N)[C@@H](N)C[C@H]2NC(=O)[C@@H](O)CCN)O1 ?
1.56

And for NC[C@@H]1CC[C@@H](N)[C@@H](O[C@H]2[C@H](O)[C@@H](O[C@H]3O[C@H](CO)[C@@H](O)[C@H](N)[C@H]3O)[C@H](N)C[C@@H]2N)O1 [DKB, 3',4'-dideoxykanamycin B, reference compound] ?
3.13

And for C[C@H]1O[C@H](O[C@@H]2[C@@H](O)[C@H](O[C@H]3O[C@H](CN)CC[C@H]3N)[C@@H](N)C[C@H]2N)[C@H](O)[C@@H](N)[C@@H]1O ?
1.56

These data points were gathered from patent US4332794A.
